# METHOD_DESCRIPTION: Pharmacokinetic study in rats, single oral dose
# Format: in vivo, Sprague-Dawley rats
# CONDITION_SET: female, Sprague-Dawley, rat, plasma, oral; 5 mg/kg, 8 hrs; read-out: Rat plasma concentration of ZB716 after a single oral dose
VALUE_KIND: concentration at 8 h (ng/mL)
Output spec: scalar in ng/mL, unitless text.

Entry C[C@]12CC[C@@H]3c4ccc(B(O)O)cc4C[C@@H](CCCCCCCCC[S+]([O-])CCCC(F)(F)C(F)(F)F)[C@H]3[C@@H]1CC[C@@H]2O (stereo partly shown) ; concentration at 8 h = 11.4

---

# METHOD_DESCRIPTION: Pharmacokinetic study in rats, single oral dose
# Format: in vivo, Sprague-Dawley rats
# CONDITION_SET: female, Sprague-Dawley, rat, plasma, oral; 10 mg/kg, 24 hrs; read-out: Rat plasma concentration of ZB716 after a single oral dose
VALUE_KIND: concentration at 24 h (ng/mL)
Output spec: scalar in ng/mL, unitless text.

Entry C[C@]12CC[C@@H]3c4ccc(B(O)O)cc4C[C@@H](CCCCCCCCC[S+]([O-])CCCC(F)(F)C(F)(F)F)[C@H]3[C@@H]1CC[C@@H]2O (stereo partly shown) ; concentration at 24 h = 33.1
